- assay_notes: gradient 5% acetonitrile 3 min, to 50% in 2 min, to 85% in 15 min, held 3 min, 100 µL/min
- conditions: column: Zorbax Extend-C18 2.1 x 50 mm; eluents: water / acetonitrile, 0.1% formic acid
measure: RP-LC retention time

>  <compound>
CCS(=O)(=O)N1CC(=O)N(c2cccc(F)c2)C(C)(C(=O)NC2CCCCC2)C1 (stereo not given)

>  <meas_value>
817 s

$$$$
>  <compound>
COCCCNC(=O)c1csc(N2CCN(c3ccc(F)cc3)CC2)n1

>  <meas_value>
915 s

$$$$
>  <compound>
COc1ccc(-c2nc(CS(=O)(=O)c3ccc(C)cc3)no2)c(C)c1

>  <meas_value>
1010 s

$$$$
>  <compound>
COc1nn(C)cc1C(=O)Nc1nnc(C)s1

>  <meas_value>
583 s

$$$$
>  <compound>
O=C(Cn1cnc2ccccc2c1=O)N1CCCC(c2nnc(-c3ccccc3F)s2)C1 (stereo not given)

>  <meas_value>
730 s

$$$$
>  <compound>
O=C(CCn1ccnc1)N1CCC2(CCC(=O)N(CC3CC3)CC2)CC1

>  <meas_value>
577 s

$$$$
>  <compound>
CCc1ccc(-c2nc3sc(C(=O)NC)c(C)n3c2NCCOC)cc1

>  <meas_value>
754 s

$$$$
>  <compound>
Cc1occc1C(=O)Nc1nc(-c2ccc(CC(C)C)cc2)cs1

>  <meas_value>
1350 s

$$$$
>  <compound>
CCOCCCNC(=O)C1(C)Cn2c(ccc2-c2ccco2)C(=O)N1c1ccc(F)cc1 (stereo not given)

>  <meas_value>
808 s

$$$$
>  <compound>
COc1ccc(NCc2nnc3n2CCCCC3)cc1OC

>  <meas_value>
559 s

$$$$

----------
- assay_notes: gradient 5% acetonitrile 3 min, to 50% in 2 min, to 85% in 15 min, held 3 min, 100 µL/min
- conditions: column: Zorbax Extend-C18 2.1 x 50 mm; eluents: water / acetonitrile, 0.1% formic acid

>  <molecule>
CCCSc1nnc(NC(=O)CCc2ccc(C)o2)s1

>  <RP-LC retention time [s]>
892

$$$$
>  <molecule>
Cc1nc2c(NS(=O)(=O)c3ccc(Cl)cc3)cccn2n1

>  <RP-LC retention time [s]>
778

$$$$
>  <molecule>
O=C(c1cocn1)N1CC(F)(F)C[C@H]1c1nnc(-c2ccncc2)o1

>  <RP-LC retention time [s]>
638

$$$$
>  <molecule>
CN1c2cc(F)ccc2C(=O)NC12CCN(C(=O)Cc1ccccc1Cl)CC2

>  <RP-LC retention time [s]>
783

$$$$
>  <molecule>
CN(C)c1cccc(C(=O)N2CCN(C(=O)C3CC3c3ccc4c(c3)OCO4)CC2)c1 (stereo not given)

>  <RP-LC retention time [s]>
715

$$$$
>  <molecule>
Cc1noc(-c2nn(C)c3c2CN(C(=O)c2cccc(Br)c2)CC3)n1

>  <RP-LC retention time [s]>
783

$$$$
>  <molecule>
COc1ccc(NC(=O)Cn2nc(C(=O)N3CCCC3)c3ccccc32)cc1

>  <RP-LC retention time [s]>
800

$$$$
>  <molecule>
Cc1c(Cl)cccc1NC(=O)CCOc1ccccc1

>  <RP-LC retention time [s]>
888

$$$$
>  <molecule>
Cc1ccc(-c2noc(Cn3ccn(-c4c(C)cccc4C)c(=O)c3=O)n2)cc1C

>  <RP-LC retention time [s]>
1000

$$$$
>  <molecule>
CCCNC(=O)C1CCCN(c2ccc(SCC(=O)Nc3ccc(C)cc3)nn2)C1 (stereo not given)

>  <RP-LC retention time [s]>
686

$$$$
>  <molecule>
COc1cccc(NC(=O)Cn2c(C)cc(-c3nnc(-c4ccccc4)o3)c2C)c1

>  <RP-LC retention time [s]>
921

$$$$
>  <molecule>
Cc1nc2cc(-c3noc(-c4ccc(Br)o4)n3)ccc2o1

>  <RP-LC retention time [s]>
1090

$$$$
>  <molecule>
O=C(Cc1nnc2c(-c3nc(C4CC4)no3)cccn12)N1CCCCCC1

>  <RP-LC retention time [s]>
674

$$$$
>  <molecule>
CCN1CCN(CCCNc2ccc(-c3nc(-c4ccc(C)cc4)no3)cn2)CC1

>  <RP-LC retention time [s]>
646

$$$$
>  <molecule>
O=C(CCn1cnc2cc(-c3noc(-c4cncc(Br)c4)n3)ccc21)N1CCCCC1

>  <RP-LC retention time [s]>
782

$$$$
>  <molecule>
O=C1NC2(CCN(C(=O)c3cccc(Cl)c3)CC2)N=C1c1cccc(F)c1

>  <RP-LC retention time [s]>
888

$$$$
>  <molecule>
Cc1noc(-c2ccnc(-n3ncc(C(=O)NC4CCCCC4)c3C)c2)n1

>  <RP-LC retention time [s]>
892

$$$$
>  <molecule>
CC1(C)CCCC2(C)C(OCCO)=CC(=O)C=C12 (stereo not given)

>  <RP-LC retention time [s]>
794

$$$$
>  <molecule>
O=C(NCC1CC1)c1ccc(NC(=O)C2CCC2)cc1N1CCOCC1

>  <RP-LC retention time [s]>
709

$$$$
>  <molecule>
Cc1ccn2c(Nc3ccccc3C)c(-c3ccc(Cl)cc3)nc2c1

>  <RP-LC retention time [s]>
810

$$$$
>  <molecule>
CC(=O)c1ccc(NC(=O)Cn2c(-c3ccc(Cl)cc3)nc(C)cc2=O)cc1

>  <RP-LC retention time [s]>
1040

$$$$
>  <molecule>
COc1ccc(Br)c2c1-c1nc(NC(=O)c3ccccc3)sc1C2

>  <RP-LC retention time [s]>
1130

$$$$
>  <molecule>
O=C(Cc1cccs1)NCC1CCS(=O)(=O)C1 (stereo not given)

>  <RP-LC retention time [s]>
586

$$$$
>  <molecule>
Cc1cc(C)cc(C(=O)N2CCc3[nH]nc(C(=O)N(C)C)c3C2)c1

>  <RP-LC retention time [s]>
655

$$$$
>  <molecule>
COCCCNC(=O)C1CCC(=O)N(c2ccc3c(c2)OCO3)C1c1ccc(OC)cc1 (stereo not given)

>  <RP-LC retention time [s]>
644

$$$$
>  <molecule>
O=C(Cc1nnc(-c2ccc3ncccc3c2)o1)NCc1ccccc1Cl

>  <RP-LC retention time [s]>
711

$$$$
>  <molecule>
CC(C)c1ccccc1NC(=O)CN1CCN(c2ccc(Cl)cc2)C1=O

>  <RP-LC retention time [s]>
906

$$$$
>  <molecule>
CCN1CCC2(CC1)OC(=O)C(C)=C2C(=O)Nc1cc(Cl)c(OC)cc1OC

>  <RP-LC retention time [s]>
643

$$$$
>  <molecule>
CN(C)c1ccc(C(=O)N2CCCC2c2nc(-c3ccc(F)cc3)no2)cc1 (stereo not given)

>  <RP-LC retention time [s]>
1020

$$$$
>  <molecule>
COc1ccc2c(C)c(CCC(=O)N[C@H](C(=O)O)c3ccccc3)c(=O)oc2c1OC

>  <RP-LC retention time [s]>
719

$$$$
>  <molecule>
Cc1cc(Cl)ccc1NC(=O)Cn1c(C)nc2onc(C)c2c1=O

>  <RP-LC retention time [s]>
818

$$$$
>  <molecule>
CNC(=O)N1CCCC(c2cccc(C(=O)NCc3ccc(C(F)(F)F)cc3)c2)C1 (stereo not given)

>  <RP-LC retention time [s]>
853

$$$$
>  <molecule>
CCn1cc(CCNC(=O)Cc2cccs2)c2cccnc21

>  <RP-LC retention time [s]>
651

$$$$
>  <molecule>
COc1ccccc1CN1CC(F)(F)C[C@H]1COc1ccncc1

>  <RP-LC retention time [s]>
623

$$$$
>  <molecule>
O=C(NCc1ccsc1)NC(c1ccccc1)c1ccccc1

>  <RP-LC retention time [s]>
863

$$$$
>  <molecule>
CCc1nncn1C1CCN(S(=O)(=O)c2ccc(Cl)c(C)c2)CC1

>  <RP-LC retention time [s]>
716

$$$$
>  <molecule>
O=C(Cc1ccsc1)N1CCC[C@H]1c1nc(-c2ccccc2)n[nH]1

>  <RP-LC retention time [s]>
718

$$$$
>  <molecule>
O=C(NCc1csc(-c2cccs2)n1)C1CCN(C(=O)Cc2ccc(F)cc2)CC1

>  <RP-LC retention time [s]>
778

$$$$
>  <molecule>
O=C(NCc1ccco1)Nc1cccc([N+](=O)[O-])c1

>  <RP-LC retention time [s]>
846

$$$$
>  <molecule>
COCc1nc(CCNS(=O)(=O)Cc2ccccc2)no1

>  <RP-LC retention time [s]>
722

$$$$

----------
- assay_notes: gradient 5% acetonitrile 3 min, to 50% in 2 min, to 85% in 15 min, held 3 min, 100 µL/min
- conditions: column: Zorbax Extend-C18 2.1 x 50 mm; eluents: water / acetonitrile, 0.1% formic acid
RP-LC retention time strictly under 700 s means yes; at 700 s or over means no.

>  <compound>
Cc1noc(-c2nn(C)c3c2CN(C(=O)Cc2ccc(Cl)cc2)CC3)n1

>  <label>
no

$$$$
>  <compound>
COCC(=O)NC1CCN(c2ccccc2)C1=O (stereo not given)

>  <label>
yes

$$$$
>  <compound>
Cc1ccc(CNC(=O)CCc2nnc3c4cc(-c5ccccc5)nn4ccn23)o1

>  <label>
no

$$$$
>  <compound>
CCCCOc1ccc(C(=O)NC2(c3nc(-c4cccnc4)no3)CCCCC2)cc1

>  <label>
no

$$$$
>  <compound>
O=C(Cc1nc(-c2ccccn2)n[nH]1)Nc1ccccc1

>  <label>
yes

$$$$
>  <compound>
CCOC(=O)c1[nH]c(C)c(CCC(=O)N2CCC(C(=O)NCCc3ccccc3OC)CC2)c1C

>  <label>
no

$$$$
>  <compound>
Cc1ccc(-n2c(=O)c3c(cc(C)n3C)n(CC(=O)Nc3c(C)cccc3C)c2=O)cc1

>  <label>
no

$$$$
>  <compound>
CCCC(=O)Nc1ccc(-n2cnc(C(=O)NCC)c2)nc1

>  <label>
yes

$$$$
>  <compound>
Cc1ccc(NS(=O)(=O)c2cc(-c3[nH]ncc3C(=O)N3CCCC3)oc2C)c(F)c1

>  <label>
no

$$$$
